# measured_target: DN-IV quality control recombinant protein (produced by the company) (dengue virus)
# experimental_protocol: BLI, antibody on AMC sensor
We label by threshold. Values of kon strictly beneath 40000 M⁻¹ s⁻¹ are MET. Values of 40000 M⁻¹ s⁻¹ and up are NOT MET.

Example results:
binder="Mutation 1-41 (antibody, V domains shown) VH: EVQLQQPGPELVKPGASVKMSCKASGYTFTSYVIHWVRQKPGQGLEWIGYMNPYNDGIKYNEKFIGKAILTSDKSSSTAYMQLSSLTSEDSAVYYCTREGLFYVMDYWGQGTSVTVSS VL: QIVLTQSPAIMSASPGEKVTMTCSATSSISYMHWYQQKSGTSPKRWIYDSSKLASGVPVRFSGSGSGTSYSLTISSMEAEDAATYFCQWWRSDLPTFGAGTKLELKR" category="NOT MET"
binder="Mutation 1-33 (antibody, V domains shown) VH: EVQLQQPGPELVKPGASVKMSCKASGYTFTSTVIHWVRQKPGQGLEWIGYMNPYNDGLKYNEKFIGKAILTSDKSSSTAYMQLSSLTSEDSAVYYCTREGLFYVFDYWGQGTSVTVSS VL: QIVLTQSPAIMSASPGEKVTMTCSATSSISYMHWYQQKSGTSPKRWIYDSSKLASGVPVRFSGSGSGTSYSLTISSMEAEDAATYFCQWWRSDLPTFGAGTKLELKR" category="NOT MET"
binder="Mutation 1-19 (antibody, V domains shown) VH: EVQLQQPGPELVKPGASVKMSCKASGYTFTSSVIHWVRQKPGQGLEWIGYMNPYNDGIKYNEKFIGKAILTSDKSSSTAYMQLSSLTSEDSAVYYCTREGLFYVMDYWGQGTSVTVSS VL: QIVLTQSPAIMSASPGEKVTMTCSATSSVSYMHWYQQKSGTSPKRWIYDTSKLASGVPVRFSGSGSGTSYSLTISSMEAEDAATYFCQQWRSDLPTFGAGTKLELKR" category="NOT MET"
binder="Mutation 1-40 (antibody, V domains shown) VH: EVQLQQPGPELVKPGASVKMSCKASGYTFTSSVIHWVRQKPGQGLEWIGYMNPYNDGLKYNEKFIGKAILTSDKSSSTAYMQLSSLTSEDSAVYYCTKEGLFYVFDYWGQGTSVTVSS VL: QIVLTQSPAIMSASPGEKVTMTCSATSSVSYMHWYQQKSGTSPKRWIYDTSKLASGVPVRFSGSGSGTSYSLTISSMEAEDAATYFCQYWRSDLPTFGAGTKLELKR" category="NOT MET"
binder="Mutation 1-50 (antibody, V domains shown) VH: EVQLQQPGPELVKPGASVKMSCKASGYTFTSYVIHWVRQKPGQGLEWIGYMNPYNDGLKYNEKFIGKAILTSDKSSSTAYMQLSSLTSEDSAVYYCTKEGLFYVFDYWGQGTSVTVSS VL: QIVLTQSPAIMSASPGEKVTMTCSATSSISYMHWYQQKSGTSPKRWIYDTSKLASGVPVRFSGSGSGTSYSLTISSMEAEDAATYFCQYWRSDLPTFGAGTKLELKR" category="NOT MET"
binder="Mutation 1-13 (antibody, V domains shown) VH: EVQLQQPGPELVKPGASVKMSCKASGYTFTSSVIHWVRQKPGQGLEWIGYMNPYNDGLKYNEKFIGKAILTSDKSSSTAYMQLSSLTSEDSAVYYCTREGLFYVFDYWGQGTSVTVSS VL: QIVLTQSPAIMSASPGEKVTMTCSATSSLSYMHWYQQKSGTSPKRWIYDSSKLASGVPVRFSGSGSGTSYSLTISSMEAEDAATYFCQWWRSDLPTFGAGTKLELKR" category="NOT MET"
binder="Mutation 1-34 (antibody, V domains shown) VH: EVQLQQPGPELVKPGASVKMSCKASGYTFTSSVIHWVRQKPGQGLEWIGYMNPYNDGIKYNEKFIGKAILTSDKSSSTAYMQLSSLTSEDSAVYYCTREGLFYVFDYWGQGTSVTVSS VL: QIVLTQSPAIMSASPGEKVTMTCSATSSLSYMHWYQQKSGTSPKRWIYDTSKLASGVPVRFSGSGSGTSYSLTISSMEAEDAATYFCQYWRSDLPTFGAGTKLELKR" category=MET
binder="Mutation 1-44 (antibody, V domains shown) VH: EVQLQQPGPELVKPGASVKMSCKASGYTFTSYVIHWVRQKPGQGLEWIGYMNPYNDGLKYNEKFIGKAILTSDKSSSTAYMQLSSLTSEDSAVYYCTREGLFYVFDYWGQGTSVTVSS VL: QIVLTQSPAIMSASPGEKVTMTCSATSSVSYMHWYQQKSGTSPKRWIYDSSKLASGVPVRFSGSGSGTSYSLTISSMEAEDAATYFCQYWRSDLPTFGAGTKLELKR" category="NOT MET"

Decide: kon of WT 1-5 (antibody, V domains shown) VH: EVQLQQPGPELVKPGASVKMSCKASGYTVTSYVIHWVRQKPGQGLEWIGYMNAYNDGLKYNDKFIGKAILTSDKSSSTAYMQLSSLTSEDSAVYYCTKEGLFYVFDYWGQGTSVTVSS VL: QIVLTQSPAIMSASPGEKVTMTCSGTSSVSYMHWYQQKSGTSPKRWIYDSSKLASPVPVRFSGSGSGTSYSLTISSMEAEDAATYFCQWWRSVLPTFGAGTKLELKR strictly below 40000 M⁻¹ s⁻¹? MET
